B1: glmS ribozyme (parent)
chain: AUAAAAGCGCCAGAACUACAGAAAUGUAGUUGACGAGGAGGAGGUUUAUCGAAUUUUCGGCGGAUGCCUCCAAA

variants of: B1; assay: self-cleavage kobs at 640 uM GlcN6P; higher = faster cleavage; RNA array; conditions: with glucosamine-6-phosphate
Variants at the floor of the assay were thinned out.
Exercise: state measured self-cleavage kobs at 640 uM GlcN6P for each of the variants provided.

// solved cases for self-cleavage kobs at 640 uM GlcN6P follow
1) U31A U65C | 6.63e-05 s⁻¹
2) C8U U49C | < 1e-05 s⁻¹
3) C8G A33U G41U | < 1e-05 s⁻¹
4) A6G G51A | < 1e-05 s⁻¹
5) G13C U69G | 9.44e-05 s⁻¹
6) C10U G44A | < 1e-05 s⁻¹
7) U56A C68U | 0.000955 s⁻¹
8) A6G A12G U31A U54A C71A | < 1e-05 s⁻¹

Dear reader, for each entry below, please note its self-cleavage kobs at 640 uM GlcN6P.
1. G35A U55G G63A A64G
2. A6G A52G A53G C67G
3. G7U U31A
4. A6G A42C

Response line:
1: < 1e-05 s⁻¹; 2: 0.00028 s⁻¹; 3: < 1e-05 s⁻¹; 4: < 1e-05 s⁻¹

Dear reader, for each entry below, please note its self-cleavage kobs at 640 uM GlcN6P.
1. A15U C68G
2. G38A U45C
3. G43C U46A A48C
4. C61G U69C C70G
5. G44U A48U A64G C67G
6. G9U C34U U55C G60C G63A

Response line:
2.81e-05 s⁻¹
< 1e-05 s⁻¹
< 1e-05 s⁻¹
6.36e-05 s⁻¹
0.000188 s⁻¹
< 1e-05 s⁻¹

Dear reader, for each entry below, please note its self-cleavage kobs at 640 uM GlcN6P.
1. G13C G44U
2. C10A G35C C70U
3. C34A G38U A53C
4. A6U U56A
5. A14G G37A

Response line:
1: < 1e-05 s⁻¹; 2: < 1e-05 s⁻¹; 3: < 1e-05 s⁻¹; 4: 3.39e-05 s⁻¹; 5: 0.00126 s⁻¹

Dear reader, for each entry below, please note its self-cleavage kobs at 640 uM GlcN6P.
1. C16G U46A
2. G13C U31A G38U A39U G40C
3. C16A G44C U54C

Response line:
1: 9.94e-05 s⁻¹; 2: < 1e-05 s⁻¹; 3: < 1e-05 s⁻¹
